system.under.test: T1, human myostatin (mature, recombinant; R&D Systems) (human, UniProt O14793 267-375)
T1 sequence: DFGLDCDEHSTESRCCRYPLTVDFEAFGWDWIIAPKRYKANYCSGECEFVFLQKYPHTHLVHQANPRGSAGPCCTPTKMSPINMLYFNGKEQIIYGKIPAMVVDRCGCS
experiment.notes: cell-based or functional assay
measured.quantity: Myostatin ARE-luc IC50

Use the examples below as a reference point.
{"binder": "3116_A06 R56A (designed binder) MGVSDVPRDLEVVAATPTSLLISWSLPHQGKANYYRITYGETGGNSPVQEFTVPGAGVTATISGLKPGVDYTITVYAVTVTDTGYLKYKPISINYRTEIDKPSQHHHHHH", "Myostatin ARE-luc IC50": "> 0.1 µM"}
{"binder": "3116_A06 G55A (designed binder) MGVSDVPRDLEVVAATPTSLLISWSLPHQGKANYYRITYGETGGNSPVQEFTVPARGVTATISGLKPGVDYTITVYAVTVTDTGYLKYKPISINYRTEIDKPSQHHHHHH", "Myostatin ARE-luc IC50": "> 0.1 µM"}

Now for a further binder.
Data request: Field request: Myostatin ARE-luc IC50 | item: 3116_A06 T81A (designed binder) MGVSDVPRDLEVVAATPTSLLISWSLPHQGKANYYRITYGETGGNSPVQEFTVPGRGVTATISGLKPGVDYTITVYAVTVADTGYLKYKPISINYRTEIDKPSQHHHHHH
Data returned: 0.032 µM
